The values you see were collected from the CombiSolv-Exp solvation set (Vermeire and Green 2021).

- experiment summary: solvent given as SMILES
- condition details: in O
solvation free energy, 298 K strictly under -2 kcal/mol means Criterion met; at -2 kcal/mol or over means Criterion not met.

Study these solved cases before continuing.
- molecule: "CC(C)Cc1ccc(C(C)C(=O)O)cc1 (stereo not drawn)"
  discrete label: "Criterion met"
- molecule: "N#Cc1ccc(O)cc1"
  discrete label: "Criterion met"
- molecule: "ClC(Cl)(Cl)Cl"
  discrete label: "Criterion not met"
- molecule: "CCCCCCCCCCCCCCCCCCO"
  discrete label: "Criterion met"
- molecule: "CCCCI"
  discrete label: "Criterion not met"
- molecule: "O=C1c2ccccc2C(=O)c2c(NCCO)cccc21"
  discrete label: "Criterion met"
- molecule: "Oc1ccc(O)cc1"
  discrete label: "Criterion met"
- molecule: "CC(C)C#N"
  discrete label: "Criterion met"
- molecule: "C=CC=O"
  discrete label: "Criterion met"
- molecule: "C=C(C)C(=C)C"
  discrete label: "Criterion not met"

# evaluate next
Inquiry: Hello, is solvation free energy, 298 K of the following molecule strictly smaller than -2 kcal/mol? CCCCC(O)CC (stereo not drawn)
Reply text: Criterion met

----------
- experiment summary: solvent given as SMILES
- condition details: in CN1CCN(C)C1=O
The entries below come with measured solvation free energy, 298 K values attached.
# unit: kcal/mol | format: bare number

A selection of reference data follows.
- structure as smiles: "CCCO"
  measured value: -5.51
- structure as smiles: "C1CCCCC1"
  measured value: -3.07

Inquiry: State its solvation free energy, 298 K: "C1CCCC1"
Reply text: -2.56

Inquiry: State its solvation free energy, 298 K: "COC(C)=O"
Reply text: -3.55

Inquiry: State its solvation free energy, 298 K: "CC(C)CO"
Reply text: -5.9

----------
- experiment summary: solvent given as SMILES
- condition details: in C=CCCCC
The entries below come with measured solvation free energy, 298 K values attached.
# unit: kcal/mol | format: bare number

A selection of reference data follows.
- structure as smiles: "CC(C)CC(C)C"
  solvation free energy, 298 K, kcal/mol: -4.22
- structure as smiles: "CCCC=O"
  solvation free energy, 298 K, kcal/mol: -3.65
- structure as smiles: "CCCC(C)C"
  solvation free energy, 298 K, kcal/mol: -3.84

Inquiry: State its solvation free energy, 298 K: "O=C=O"
Reply text: -0.56

Inquiry: State its solvation free energy, 298 K: "C1CCCCC1"
Reply text: -4.22

----------
The entries below come with measured solvation free energy, 298 K values attached.
- experiment summary: solvent given as SMILES
- condition details: in CC(=O)N(C)C
# unit: kcal/mol | format: bare number

A selection of reference data follows.
- structure as smiles: "CC(C)OC(C)(C)C"
  unit abbreviation: "kcal/mol"
  solvation free energy, 298 K: -3.75
- structure as smiles: "CC(C)OC(C)C"
  unit abbreviation: "kcal/mol"
  solvation free energy, 298 K: -3.41
- structure as smiles: "ClCCCl"
  unit abbreviation: "kcal/mol"
  solvation free energy, 298 K: -5.01

Inquiry: State its solvation free energy, 298 K: "CCCC(C)C"
Reply text: -2.65

Inquiry: State its solvation free energy, 298 K: "CCCCCCCCCCCCCCCCCCCCCCCCCC"
Reply text: -17.6

Inquiry: State its solvation free energy, 298 K: "CCCCCCCCCCCCCCCCCCCCC"
Reply text: -14.3

Inquiry: State its solvation free energy, 298 K: "CC(C)CC(C)C"
Reply text: -2.97

Inquiry: State its solvation free energy, 298 K: "O=C1c2ccccc2C(=O)c2c(Cl)cccc21"
Reply text: -14.9

Inquiry: State its solvation free energy, 298 K: "C=CCCC"
Reply text: -2.35

Inquiry: State its solvation free energy, 298 K: "CC=O"
Reply text: -3.22

Inquiry: State its solvation free energy, 298 K: "O=S=O"
Reply text: -3.52

----------
- experiment summary: solvent given as SMILES
- condition details: in CN(C)P(=O)(N(C)C)N(C)C
readout kind: solvation free energy, 298 K (kcal/mol)
# unit: kcal/mol | format: bare number

A selection of reference data follows.
- structure as smiles: "C=C"
  solvation free energy, 298 K (kcal/mol): -0.52
- structure as smiles: "Cc1ccccc1"
  solvation free energy, 298 K (kcal/mol): -5
- structure as smiles: "O=C=O"
  solvation free energy, 298 K (kcal/mol): -0.9

Inquiry: State its solvation free energy, 298 K: "c1ccccc1"
Reply text: -4.31

Inquiry: State its solvation free energy, 298 K: "C#CC"
Reply text: -2.6

----------
- experiment summary: solvent given as SMILES
- condition details: in C1CCCCC1
solvation free energy, 298 K strictly under -4 kcal/mol means Criterion met; at -4 kcal/mol or over means Criterion not met.

Study these solved cases before continuing.
- structure as smiles: "O=O"
  discrete label: "Criterion not met"
- structure as smiles: "O=S=O"
  discrete label: "Criterion not met"
- structure as smiles: "CCCC(C)C"
  discrete label: "Criterion not met"
- structure as smiles: "C=CCC"
  discrete label: "Criterion not met"
- structure as smiles: "CNC=O"
  discrete label: "Criterion not met"

Inquiry: Hello, is solvation free energy, 298 K of the following compound strictly smaller than -4 kcal/mol? "Cc1ccccc1"
Reply text: Criterion met

Inquiry: Hello, is solvation free energy, 298 K of the following compound strictly smaller than -4 kcal/mol? "O=C=O"
Reply text: Criterion not met

Inquiry: Hello, is solvation free energy, 298 K of the following compound strictly smaller than -4 kcal/mol? "CC(C)CC(C)C"
Reply text: Criterion met

Inquiry: Hello, is solvation free energy, 298 K of the following compound strictly smaller than -4 kcal/mol? "[2H]O[2H]"
Reply text: Criterion not met

Inquiry: Hello, is solvation free energy, 298 K of the following compound strictly smaller than -4 kcal/mol? "c1ccccc1"
Reply text: Criterion met

Inquiry: Hello, is solvation free energy, 298 K of the following compound strictly smaller than -4 kcal/mol? "COC(=O)OC"
Reply text: Criterion not met

Inquiry: Hello, is solvation free energy, 298 K of the following compound strictly smaller than -4 kcal/mol? "CC(C)(C)Cl"
Reply text: Criterion not met

Inquiry: Hello, is solvation free energy, 298 K of the following compound strictly smaller than -4 kcal/mol? "O=[N+]([O-])c1cc(Cl)ccc1Cl"
Reply text: Criterion met

Inquiry: Hello, is solvation free energy, 298 K of the following compound strictly smaller than -4 kcal/mol? "ClCBr"
Reply text: Criterion not met

----------
- experiment summary: solvent given as SMILES
- condition details: in CCCCN(C=O)CCCC
The entries below come with measured solvation free energy, 298 K values attached.

A selection of reference data follows.
- structure as smiles: "CC(C)CO"
  solvation free energy, 298 K: "-5.76 kcal/mol"
- structure as smiles: "CC=O"
  solvation free energy, 298 K: "-2.78 kcal/mol"
- structure as smiles: "CC(C)C=O"
  solvation free energy, 298 K: "-3.78 kcal/mol"
- structure as smiles: "Cc1ccccc1"
  solvation free energy, 298 K: "-4.91 kcal/mol"
- structure as smiles: "COC(C)=O"
  solvation free energy, 298 K: "-3.48 kcal/mol"

Inquiry: State its solvation free energy, 298 K: "c1ccoc1"
Reply text: -3.27 kcal/mol

Inquiry: State its solvation free energy, 298 K: "ClCCCl"
Reply text: -4.62 kcal/mol

Inquiry: State its solvation free energy, 298 K: "C1CCCCC1"
Reply text: -3.67 kcal/mol

----------
The entries below come with measured solvation free energy, 298 K values attached.
- experiment summary: solvent given as SMILES
- condition details: in Cc1ccc(C)cc1
# unit: kcal/mol | format: bare number

A selection of reference data follows.
- structure as smiles: "COC"
  measured value: -2.03
- structure as smiles: "C=CCC"
  measured value: -2.33
- structure as smiles: "C=CCCC"
  measured value: -3.11
- structure as smiles: "S=C=S"
  measured value: -3.55
- structure as smiles: "Clc1ccccc1"
  measured value: -5.52

Inquiry: State its solvation free energy, 298 K: "ClCCl"
Reply text: -3.55

Inquiry: State its solvation free energy, 298 K: "O=O"
Reply text: 0.83

Inquiry: State its solvation free energy, 298 K: "II"
Reply text: -6.21

----------
The entries below come with measured solvation free energy, 298 K values attached.
- experiment summary: solvent given as SMILES
- condition details: in CCCC(C)O
# unit: kcal/mol | format: bare number

A selection of reference data follows.
- structure as smiles: "C=CCC"
  readout kind: "solvation free energy, 298 K"
  unit abbreviation: "kcal/mol"
  measured value: -2.01
- structure as smiles: "O=c1c2ccccc2sc2ccccc12"
  readout kind: "solvation free energy, 298 K"
  unit abbreviation: "kcal/mol"
  measured value: -11.9

Read the next record carefully.
Inquiry: State its solvation free energy, 298 K: "CN(C)C(=O)Nc1ccc(Cl)c(Cl)c1"
Reply text: -14.5
